# Test system: CAL-120
# procedure-text: normalised viability (% of control), CellTiter-Blue; higher = more viable cells (100 = DMSO, 0 = benzethonium chloride kill control)
# reported-conditions: incubation time: 72 h
Items are presented alongside their recorded normalised viability.

>  <molecule>
CC[C@@H]1C(=O)OC[C@@H]1Cc1cncn1C [Pilocarpine] (4 nM)

>  <normalised viability>
100%

$$$$
>  <molecule>
Oc1ncnc2[nH]ncc12 [Allopurinol] (1 nM)

>  <normalised viability>
111%

$$$$
>  <molecule>
Nc1ncn([C@@H]2O[C@H](CO)[C@@H](O)[C@H]2O)c(=O)n1 [Azacitidine] (1 nM)

>  <normalised viability>
84.4%

$$$$
>  <molecule>
COc1cc2c(cc1O)CC[C@@H]1[C@@H]2CC[C@]2(C)[C@@H](O)CC[C@@H]12 [2-methoxyestradiol] (1 nM)

>  <normalised viability>
92.1%

$$$$
>  <molecule>
C[C@]1(O)C[C@@H](c2nc(-c3ccc4ccc(-c5ccccc5)nc4c3)c3c(N)nccn32)C1 [OSI-906] (1 nM)

>  <normalised viability>
97.4%

$$$$
>  <molecule>
CC(=O)c1c(C)c2cnc(Nc3ccc(N4CCNCC4)cn3)nc2n(C2CCCC2)c1=O (1 nM)

>  <normalised viability>
87.1%

$$$$
